Ref: the NIST ThermoML archive (doi:10.1021/je900550v)

assayContext: 284.4 K; 101.33 kPa; Liquid; Pulse-echo method
reportedEndpoint: speed of sound (m/s)

>>> df
                                   molecule  reportedendpoint     val
0  CCCCC(=O)[O-].C[NH2+]CCO [2-hydroxy-N-methylethanaminium pentanoate]    speed of sound  1593.9
1  CC(C)C(=O)[O-].C[NH2+]CCO [2-hydroxy-N-methylethanaminium isobutyrate]    speed of sound  1650.9
2  C[NH2+]CCO.O=C[O-] [2-hydroxy-N-methylethanaminium formate]    speed of sound  1842.3
3  CCC(=O)[O-].C[NH2+]CCO [2-hydroxy-N-methylethanaminium propionate]    speed of sound  1731.8
4  CCCC(=O)[O-].C[NH2+]CCO [N-methyl-2-hydroxyethylammonium butanoate]    speed of sound  1660.3

====

assayContext: 294.4 K; 101.33 kPa; Liquid; Pulse-echo method
reportedEndpoint: speed of sound (m/s)

In [3]: df
Out[3]:
                                   molecule  reportedendpoint     val
0  CCCC(=O)[O-].C[NH2+]CCO [N-methyl-2-hydroxyethylammonium butanoate]    speed of sound  1626.6
1  CCCCC(=O)[O-].C[NH2+]CCO [2-hydroxy-N-methylethanaminium pentanoate]    speed of sound  1560.7
2  CC(C)C(=O)[O-].C[NH2+]CCO [2-hydroxy-N-methylethanaminium isobutyrate]    speed of sound    1622
3  C[NH2+]CCO.O=C[O-] [2-hydroxy-N-methylethanaminium formate]    speed of sound  1822.7
4  CCC(=O)[O-].C[NH2+]CCO [2-hydroxy-N-methylethanaminium propionate]    speed of sound  1701.1

====

assayContext: 316.91 K; 101.33 kPa; Liquid; Vibrating tube method
reportedEndpoint: mass density (kg/m3)

In [3]: df
Out[3]:
                                   molecule  reportedendpoint      val
0  CCCCC(=O)[O-].C[NH2+]CCO [2-hydroxy-N-methylethanaminium pentanoate]      mass density  1003.55
1  CC(=O)[O-].C[NH2+]CCO [N-methyl-2-hydroxyethylammonium acetate]      mass density  1089.49
2  CCC(=O)[O-].C[NH2+]CCO [2-hydroxy-N-methylethanaminium propionate]      mass density  1059.01
3  CCCC(=O)[O-].C[NH2+]CCO [N-methyl-2-hydroxyethylammonium butanoate]      mass density  1026.58
4  CC(C)C(=O)[O-].C[NH2+]CCO [2-hydroxy-N-methylethanaminium isobutyrate]      mass density  1031.18
5  C[NH2+]CCO.O=C[O-] [2-hydroxy-N-methylethanaminium formate]      mass density  1117.79

====

assayContext: 288.4 K; 101.33 kPa; Liquid; Vibrating tube method
reportedEndpoint: mass density (kg/m3)

In [3]: df
Out[3]:
                                   compound      val
0  CC(=O)[O-].C[NH2+]CCO [N-methyl-2-hydroxyethylammonium acetate]  1106.65
1  CCCC(=O)[O-].C[NH2+]CCO [N-methyl-2-hydroxyethylammonium butanoate]  1045.84
2  C[NH2+]CCO.O=C[O-] [2-hydroxy-N-methylethanaminium formate]  1133.69
3  CCCCC(=O)[O-].C[NH2+]CCO [2-hydroxy-N-methylethanaminium pentanoate]  1022.82
4  CCC(=O)[O-].C[NH2+]CCO [2-hydroxy-N-methylethanaminium propionate]  1077.62
5  CC(C)C(=O)[O-].C[NH2+]CCO [2-hydroxy-N-methylethanaminium isobutyrate]  1049.52

====

assayContext: 291.15 K; 101.33 kPa; Liquid; Pulse-echo method
reportedEndpoint: speed of sound (m/s)

In [3]: df
Out[3]:
                                   compound  reportedendpoint  unitinfo     val
0  CC(C)C(=O)[O-].C[NH2+]CCO [2-hydroxy-N-methylethanaminium isobutyrate]    speed of sound       m/s  1631.2
1  C[NH2+]CCO.O=C[O-] [2-hydroxy-N-methylethanaminium formate]    speed of sound       m/s    1829
2  CCC(=O)[O-].C[NH2+]CCO [2-hydroxy-N-methylethanaminium propionate]    speed of sound       m/s  1710.9
3  CCCCC(=O)[O-].C[NH2+]CCO [2-hydroxy-N-methylethanaminium pentanoate]    speed of sound       m/s  1571.2
4  CCCC(=O)[O-].C[NH2+]CCO [N-methyl-2-hydroxyethylammonium butanoate]    speed of sound       m/s  1637.2

====

assayContext: 308.9 K; 101.33 kPa; Liquid; Pulse-echo method
reportedEndpoint: speed of sound (m/s)

>>> print(df.to_string())
                                   molecule     val
0  CC(C)C(=O)[O-].C[NH2+]CCO [2-hydroxy-N-methylethanaminium isobutyrate]    1581
1  CCCC(=O)[O-].C[NH2+]CCO [N-methyl-2-hydroxyethylammonium butanoate]  1580.7
2  CCC(=O)[O-].C[NH2+]CCO [2-hydroxy-N-methylethanaminium propionate]  1658.3
3  CCCCC(=O)[O-].C[NH2+]CCO [2-hydroxy-N-methylethanaminium pentanoate]  1515.3
4  C[NH2+]CCO.O=C[O-] [2-hydroxy-N-methylethanaminium formate]  1794.4

====

assayContext: 327.16 K; 101.33 kPa; Liquid; Vibrating tube method
reportedEndpoint: mass density (kg/m3)

                                   compound  reportedendpoint  unitinfo      val
0  CCCCC(=O)[O-].C[NH2+]CCO [2-hydroxy-N-methylethanaminium pentanoate]      mass density     kg/m3  996.452
1  CC(=O)[O-].C[NH2+]CCO [N-methyl-2-hydroxyethylammonium acetate]      mass density     kg/m3  1083.12
2  C[NH2+]CCO.O=C[O-] [2-hydroxy-N-methylethanaminium formate]      mass density     kg/m3  1112.14
3  CC(C)C(=O)[O-].C[NH2+]CCO [2-hydroxy-N-methylethanaminium isobutyrate]      mass density     kg/m3  1024.34
4  CCC(=O)[O-].C[NH2+]CCO [2-hydroxy-N-methylethanaminium propionate]      mass density     kg/m3  1052.12
5  CCCC(=O)[O-].C[NH2+]CCO [N-methyl-2-hydroxyethylammonium butanoate]      mass density     kg/m3  1019.47

====

assayContext: 285.4 K; 101.33 kPa; Liquid; Vibrating tube method
reportedEndpoint: mass density (kg/m3)

>>> df
                                   compound  reportedendpoint  unitinfo      val
0  C[NH2+]CCO.O=C[O-] [2-hydroxy-N-methylethanaminium formate]      mass density     kg/m3  1135.37
1  CCCCC(=O)[O-].C[NH2+]CCO [2-hydroxy-N-methylethanaminium pentanoate]      mass density     kg/m3  1024.83
2  CCCC(=O)[O-].C[NH2+]CCO [N-methyl-2-hydroxyethylammonium butanoate]      mass density     kg/m3  1047.85
3  CC(=O)[O-].C[NH2+]CCO [N-methyl-2-hydroxyethylammonium acetate]      mass density     kg/m3  1108.47
4  CC(C)C(=O)[O-].C[NH2+]CCO [2-hydroxy-N-methylethanaminium isobutyrate]      mass density     kg/m3  1051.47
5  CCC(=O)[O-].C[NH2+]CCO [2-hydroxy-N-methylethanaminium propionate]      mass density     kg/m3  1079.59

====

assayContext: 295.15 K; 101.33 kPa; Liquid; Pulse-echo method
reportedEndpoint: speed of sound (m/s)

>>> print(df.to_string())
                                   molecule  reportedendpoint     val
0  C[NH2+]CCO.O=C[O-] [2-hydroxy-N-methylethanaminium formate]    speed of sound  1821.2
1  CC(C)C(=O)[O-].C[NH2+]CCO [2-hydroxy-N-methylethanaminium isobutyrate]    speed of sound  1619.8
2  CCCC(=O)[O-].C[NH2+]CCO [N-methyl-2-hydroxyethylammonium butanoate]    speed of sound  1624.1
3  CCC(=O)[O-].C[NH2+]CCO [2-hydroxy-N-methylethanaminium propionate]    speed of sound  1698.9
4  CCCCC(=O)[O-].C[NH2+]CCO [2-hydroxy-N-methylethanaminium pentanoate]    speed of sound  1558.3

====

assayContext: 287.9 K; 101.33 kPa; Liquid; Vibrating tube method
reportedEndpoint: mass density (kg/m3)

>>> print(df.to_string())
                                   compound  unitinfo      val
0  CCC(=O)[O-].C[NH2+]CCO [2-hydroxy-N-methylethanaminium propionate]     kg/m3  1077.95
1  CCCC(=O)[O-].C[NH2+]CCO [N-methyl-2-hydroxyethylammonium butanoate]     kg/m3  1046.17
2  CCCCC(=O)[O-].C[NH2+]CCO [2-hydroxy-N-methylethanaminium pentanoate]     kg/m3  1023.15
3  CC(=O)[O-].C[NH2+]CCO [N-methyl-2-hydroxyethylammonium acetate]     kg/m3  1106.95
4  CC(C)C(=O)[O-].C[NH2+]CCO [2-hydroxy-N-methylethanaminium isobutyrate]     kg/m3  1049.85
5  C[NH2+]CCO.O=C[O-] [2-hydroxy-N-methylethanaminium formate]     kg/m3  1133.97
